# Test system: alanine-induced hyperglycemic mice
# procedure-details: Hypoglycemic activity in alanine-induced hyperglycemic mice (serum glucose lowering)
# Assay type: in vivo
# experimental-setup: Dosage Level 7.5 mg/kg intraperitoneal; fasted male Swiss-Webster mice; 10 m moles/kg L-alanine i.p. 15 min later; serum glucose 60 min after compound; 100% = lowering to fasting glucose level
experimental-readout: percent lowering of serum glucose as compared to controls (%)

compound | value-reported
O=C(O)c1ccc(NCC#Cc2ccccc2)cc1 | 36
Cc1ccc(C#CCNc2ccc(C(=O)O)cc2)cc1 | 9
O=C([O-])c1ccc(NCC#Cc2ccccc2)cc1.[Na+] | 44
O=C(O)c1ccc(NCC#Cc2ccc(F)cc2)cc1 | 2

###

# Test system: alanine-induced hyperglycemic mice
# procedure-details: Hypoglycemic activity in alanine-induced hyperglycemic mice (serum glucose lowering)
# Assay type: in vivo
# experimental-setup: Dosage Level 30 mg/kg intraperitoneal; fasted male Swiss-Webster mice; 10 m moles/kg L-alanine i.p. 15 min later; serum glucose 60 min after compound; 100% = lowering to fasting glucose level
experimental-readout: percent lowering of serum glucose as compared to controls (%)

compound | u | value-reported
O=C(O)c1ccc(NCC#Cc2ccc(F)cc2)cc1 | % | 91
Cc1ccc(C#CCNc2ccc(C(=O)O)cc2)cc1 | % | 118
O=C(O)c1ccc(NCC#Cc2ccccc2)cc1 | % | 98
O=C([O-])c1ccc(NCC#Cc2ccccc2)cc1.[Na+] | % | 114

###

# Tested on: alanine-induced hyperglycemic mice
# procedure-details: Hypoglycemic activity in alanine-induced hyperglycemic mice (serum glucose lowering)
# Assay type: in vivo
# experimental-setup: Dosage Level 15 mg/kg intraperitoneal; fasted male Swiss-Webster mice; 10 m moles/kg L-alanine i.p. 15 min later; serum glucose 60 min after compound; 100% = lowering to fasting glucose level
experimental-readout: percent lowering of serum glucose as compared to controls (%)

compound | u | value-reported
O=C(O)c1ccc(NCC#Cc2ccccc2)cc1 [Example 1] | % | 79
O=C([O-])c1ccc(NCC#Cc2ccccc2)cc1.[Na+] [Example 2] | % | 69
O=C(O)c1ccc(NCC#Cc2ccc(F)cc2)cc1 [Example 3] | % | 66
Cc1ccc(C#CCNc2ccc(C(=O)O)cc2)cc1 [Example 5] | % | 15
